Entries and their In vitro activity relative to native peptide (%), vs. GIP (cAMP EC50) values follow.
Target: T1, human GIP receptor (human, UniProt P48546 22-466)
T1 sequence (looked up): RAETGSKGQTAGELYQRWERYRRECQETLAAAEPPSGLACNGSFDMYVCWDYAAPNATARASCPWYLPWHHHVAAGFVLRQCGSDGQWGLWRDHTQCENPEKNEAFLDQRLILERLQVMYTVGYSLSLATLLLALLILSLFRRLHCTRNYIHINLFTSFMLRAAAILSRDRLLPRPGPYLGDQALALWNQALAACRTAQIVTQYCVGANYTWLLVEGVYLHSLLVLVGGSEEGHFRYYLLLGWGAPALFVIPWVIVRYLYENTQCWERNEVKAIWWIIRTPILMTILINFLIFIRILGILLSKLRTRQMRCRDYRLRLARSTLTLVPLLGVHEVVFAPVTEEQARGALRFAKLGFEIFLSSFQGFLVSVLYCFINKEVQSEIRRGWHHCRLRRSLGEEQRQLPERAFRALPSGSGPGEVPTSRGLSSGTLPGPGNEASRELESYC
Assay: cell-based or functional assay
Positions of bridges follow the written chain, without caps; N, C: chain ends. Non-standard residues stand in square brackets, D forms with d. No end group written: not given here. *: point of attachment. Acetyl(2-(4-imidazolyl)) = O=C(Cc1c[nH]cn1)*; Aib = CC(C)(N)C(=O)O
Note: unit % is implicit; provide only the numeric part.

{Acetyl(2-(4-imidazolyl))}-[Aib]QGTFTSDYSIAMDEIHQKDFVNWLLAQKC (bridge 15-19) [trigonal agonist of SEQ ID NO: 92] : 0.4
H[Aib]EGTFTSDYSIAMDEIHQKDFVDWLLAEKC (bridge 16-20) [trigonal agonist of SEQ ID NO: 80] : 0.1
Y[Aib]QGTFTSDYSKYLDECAAKDFVQWLLDHHPSSGQPPPS (bridge 16-20) [trigonal agonist of SEQ ID NO: 67] : 39.8
Y[Aib]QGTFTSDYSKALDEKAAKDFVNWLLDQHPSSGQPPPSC (bridge 16-20) [trigonal agonist of SEQ ID NO: 102] : 58
H[Aib]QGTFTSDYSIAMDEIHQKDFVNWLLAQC (bridge 16-20) [trigonal agonist of SEQ ID NO: 55] : 2.4
H[Aib]QGTFTSDYSKYLCEKRQKEFVQWLLNGGPSSGAPPPSG (bridge 16-20) [trigonal agonist of SEQ ID NO: 36] : 0.2
Y[Aib]QGTFTSDYSKALDEKAAKEFVNWLLDHHPSSGQPPPSC (bridge 16-20) [trigonal agonist of SEQ ID NO: 98] : 47.1
{Acetyl(2-(4-imidazolyl))}-[Aib]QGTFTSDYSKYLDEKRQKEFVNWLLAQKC (bridge 15-19) [trigonal agonist of SEQ ID NO: 93] : 0.7
Y[Aib]QGTFTSDYSKYLDEKRAKDFVQWLLDHHPSSGQPPPSC (bridge 16-20) [trigonal agonist of SEQ ID NO: 76] : 11.7
H[Aib]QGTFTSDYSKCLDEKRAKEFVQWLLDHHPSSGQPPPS (bridge 16-20) [trigonal agonist of SEQ ID NO: 65] : 11.6

Consider the binder Y[Aib]QGTFTSDYSKCLDERAAKEFVQWLLDHHPSSGQPPPS (bridge 16-20) [trigonal agonist of SEQ ID NO: 69] and give its measured In vitro activity relative to native peptide (%), vs. GIP (cAMP EC50).
62.8

// query: Y[Aib]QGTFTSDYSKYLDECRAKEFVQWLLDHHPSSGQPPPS (bridge 16-20) [trigonal agonist of SEQ ID NO: 21]
22.7

// query: H[Aib]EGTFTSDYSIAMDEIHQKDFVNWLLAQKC (bridge 16-20) [trigonal agonist of SEQ ID NO: 79]
1.4

Source: patent US20230390362A1
